Origin of the recorded values: patent US8471005B2

Molecular target: JAK2 (Homo sapiens)
Construct: host or cells: baculovirus expression system
Test: Recombinant Human JAK2 Kinase Assay (TRF)
Assay type: biochemical
Conditions: JAK2 kinase inhibition, 0.2 μM ATP; read-out: JAK2 Potency
pIC50: −log10 of the molar value.
Assay Readout: pIC50

A selection of reference data follows.
COc1cc(N2CCC(N3CCOCC3)CC2)ccc1Nc1ncc2ccc(-c3ccccc3C#N)n2n1 = > 7.00
COc1cc2c(cc1Nc1ncc3ccc(-c4ccccc4OC)n3n1)CN(C(C)C)C2 = > 7.00
COc1cc2c(cc1Nc1ncc3ccc(-c4cccc(S(=O)(=O)NC(C)(C)C)c4)n3n1)CCN(C[C@@H](C)O)CC2 = 6.00 to 7.00

Query pIC50 on JAK2 (Homo sapiens) for COc1ccc(N(C)S(C)(=O)=O)c(-c2ccc3cnc(Nc4ccc(C5CCN(CC(N)=O)CC5)cc4OC)nn23)c1
< 5.00

---

This section presents compounds with their documented IC50 values.
Target: ALK (Homo sapiens, UniProt Q9UM73)
Construct: host or cells: baculovirus expression system
Sequence (Q9UM73 19-1620): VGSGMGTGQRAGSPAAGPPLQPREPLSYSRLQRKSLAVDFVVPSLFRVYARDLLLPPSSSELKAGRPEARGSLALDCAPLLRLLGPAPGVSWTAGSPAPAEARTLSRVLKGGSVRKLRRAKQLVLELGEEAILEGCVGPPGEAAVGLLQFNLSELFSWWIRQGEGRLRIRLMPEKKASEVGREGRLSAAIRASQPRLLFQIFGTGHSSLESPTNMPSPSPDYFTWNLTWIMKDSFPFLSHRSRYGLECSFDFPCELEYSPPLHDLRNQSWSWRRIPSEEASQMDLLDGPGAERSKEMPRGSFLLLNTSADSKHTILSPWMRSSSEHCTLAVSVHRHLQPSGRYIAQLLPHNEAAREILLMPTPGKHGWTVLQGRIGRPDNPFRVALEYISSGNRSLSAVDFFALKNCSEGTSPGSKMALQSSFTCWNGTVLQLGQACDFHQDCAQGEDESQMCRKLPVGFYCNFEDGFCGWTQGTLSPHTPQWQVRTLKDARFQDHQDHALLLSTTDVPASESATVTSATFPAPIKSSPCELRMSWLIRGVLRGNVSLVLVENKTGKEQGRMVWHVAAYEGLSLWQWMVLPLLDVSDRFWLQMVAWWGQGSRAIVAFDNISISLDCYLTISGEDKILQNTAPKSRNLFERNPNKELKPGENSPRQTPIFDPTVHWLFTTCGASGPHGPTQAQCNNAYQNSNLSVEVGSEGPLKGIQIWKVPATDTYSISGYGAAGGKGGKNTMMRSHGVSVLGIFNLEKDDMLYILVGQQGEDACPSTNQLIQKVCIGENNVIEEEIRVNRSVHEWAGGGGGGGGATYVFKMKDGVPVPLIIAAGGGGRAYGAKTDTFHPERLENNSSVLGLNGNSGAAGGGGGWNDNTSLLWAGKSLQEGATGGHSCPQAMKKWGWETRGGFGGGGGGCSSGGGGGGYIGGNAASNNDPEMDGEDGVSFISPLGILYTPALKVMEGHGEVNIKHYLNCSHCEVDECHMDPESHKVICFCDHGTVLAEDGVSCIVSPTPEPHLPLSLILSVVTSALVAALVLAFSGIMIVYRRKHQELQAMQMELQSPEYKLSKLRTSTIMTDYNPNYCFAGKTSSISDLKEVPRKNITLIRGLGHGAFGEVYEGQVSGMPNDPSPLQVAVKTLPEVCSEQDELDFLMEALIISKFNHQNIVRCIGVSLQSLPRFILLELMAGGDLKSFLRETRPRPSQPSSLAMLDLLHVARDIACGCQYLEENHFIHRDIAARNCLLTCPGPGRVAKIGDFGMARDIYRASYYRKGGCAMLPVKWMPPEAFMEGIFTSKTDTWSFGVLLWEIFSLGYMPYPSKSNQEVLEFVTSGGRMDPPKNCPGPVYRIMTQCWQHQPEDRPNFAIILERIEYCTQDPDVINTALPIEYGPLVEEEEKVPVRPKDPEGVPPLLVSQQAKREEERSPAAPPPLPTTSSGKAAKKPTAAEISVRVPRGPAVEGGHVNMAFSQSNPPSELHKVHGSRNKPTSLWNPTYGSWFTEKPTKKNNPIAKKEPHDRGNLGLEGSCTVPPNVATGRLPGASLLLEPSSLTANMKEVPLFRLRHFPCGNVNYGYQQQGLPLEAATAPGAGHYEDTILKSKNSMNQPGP
Assay: ALK Kinase Assay (ELISA/TRF, PLC-γ substrate)
Type: biochemical
Details: ALK kinase inhibition, 1 μM ATP; read-out: ALK Potency

COc1cc(N2CCCN(C3CCN(C)CC3)CC2)ccc1Nc1ncc2ccc(-c3ccccc3OC)n2n1 = < 100 nM

Name the reported IC50 value associated with the compound N#CCCc1cccc(-c2ccc3cnc(Nc4ccc(N5CCN(CCO)CC5)cc4)nn23)c1
< 100 nM

Try COc1cc(C2(NC(=O)C(F)(F)F)CCC2)ccc1Nc1ncc2ccc(-c3ccccc3N(C)S(C)(=O)=O)n2n1 next.
100 to 1000 nM

Try COc1cc(N2CCC(N3CCOCC3)CC2)ccc1Nc1ncc2ccc(-c3c(F)cccc3OC)n2n1 next.
< 100 nM

Try CC(C)(C)NS(=O)(=O)c1cccc(-c2ccc3cnc(Nc4ccc5cn(CCN6CCOCC6)nc5c4)nn23)c1 next.
100 to 1000 nM

Try COc1ccccc1-c1ccc2cnc(Nc3ccc(N4CCOCC4)cn3)nn12 next.
1000 to 10000 nM

Try NC(=O)CN1CC(c2ccc(Nc3ncc4ccc(-c5cccc6c5OCC6)n4n3)cc2)C1 next.
< 100 nM

Try COc1cc(N2CCC(N3CCN(C(C)=O)CC3)CC2)ccc1Nc1ncc2ccc(-c3ccccc3OC)n2n1 next.
< 100 nM

Try COc1cc2c(cc1Nc1ncc3ccc(-c4ccccc4N(C)S(C)(=O)=O)n3n1)CN(C(=O)OC(C)(C)C)C2 next.
1000 to 10000 nM

Try CCN1CCOC(c2ccc(Nc3ncc4ccc(-c5ccccc5N(C)S(C)(=O)=O)n4n3)cc2)C1 (stereo not shown) next.
< 100 nM

Try CN1CCN(c2ccc(Nc3ncc4ccc(Cc5ccccc5)n4n3)cc2)CC1 next.
< 100 nM

Try CN1CCN(c2ccc(Nc3ncc4ccc(NCc5cccc([N+](=O)[O-])c5)n4n3)cc2)CC1 next.
100 to 1000 nM

Try COCCNc1cccc(-c2ccc3cnc(Nc4cccc(NC(C)=O)c4)nn23)c1 next.
1000 to 10000 nM

Try COc1ccccc1-c1ccc2cnc(Nc3ccc4c(c3)N(C(C)=O)CCCC4)nn12 next.
1000 to 10000 nM

Try CN1CCOc2ccc(Nc3ncc4ccc(-c5cccc(NS(C)(=O)=O)c5)n4n3)cc21 next.
100 to 1000 nM

Try COc1cc(CN2CCC(O)CC2)ccc1Nc1ncc2ccc(-c3ccccc3N(C)S(C)(=O)=O)n2n1 next.
< 100 nM

---

Biological target: JAK2 (Homo sapiens, UniProt O60674)
Construct: host or cells: baculovirus expression system
Sequence (O60674 whole entry): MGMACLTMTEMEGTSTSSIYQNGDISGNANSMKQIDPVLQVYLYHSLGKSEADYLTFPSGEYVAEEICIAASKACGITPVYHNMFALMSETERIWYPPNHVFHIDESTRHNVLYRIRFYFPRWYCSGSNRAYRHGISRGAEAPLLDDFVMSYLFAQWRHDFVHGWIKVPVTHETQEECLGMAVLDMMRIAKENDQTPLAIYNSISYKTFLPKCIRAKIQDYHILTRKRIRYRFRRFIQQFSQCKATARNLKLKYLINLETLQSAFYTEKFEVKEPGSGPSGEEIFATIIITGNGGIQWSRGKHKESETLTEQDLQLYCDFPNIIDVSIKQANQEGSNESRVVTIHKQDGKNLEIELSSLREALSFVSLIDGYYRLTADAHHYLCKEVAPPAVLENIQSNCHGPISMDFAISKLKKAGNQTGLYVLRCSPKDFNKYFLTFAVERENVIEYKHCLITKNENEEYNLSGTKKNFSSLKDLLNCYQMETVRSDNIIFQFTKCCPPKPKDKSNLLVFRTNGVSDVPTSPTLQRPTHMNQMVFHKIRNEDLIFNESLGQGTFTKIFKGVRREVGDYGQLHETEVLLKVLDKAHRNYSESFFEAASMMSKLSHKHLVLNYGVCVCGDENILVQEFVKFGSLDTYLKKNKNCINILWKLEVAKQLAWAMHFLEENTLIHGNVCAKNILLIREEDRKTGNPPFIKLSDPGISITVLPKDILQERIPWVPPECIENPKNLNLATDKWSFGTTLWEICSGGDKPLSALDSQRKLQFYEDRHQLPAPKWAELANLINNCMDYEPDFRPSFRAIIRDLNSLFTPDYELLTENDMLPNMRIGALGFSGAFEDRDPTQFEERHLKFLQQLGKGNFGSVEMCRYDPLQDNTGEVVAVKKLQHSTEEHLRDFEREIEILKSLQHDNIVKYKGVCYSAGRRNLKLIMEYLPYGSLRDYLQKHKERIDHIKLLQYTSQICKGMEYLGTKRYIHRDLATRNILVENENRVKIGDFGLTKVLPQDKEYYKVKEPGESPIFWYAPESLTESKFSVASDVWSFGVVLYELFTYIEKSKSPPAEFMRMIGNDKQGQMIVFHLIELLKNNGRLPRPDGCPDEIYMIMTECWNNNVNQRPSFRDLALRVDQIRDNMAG
Experiment: Recombinant Human JAK2 Kinase Assay (TRF)
Assay type: biochemical
Conditions: JAK2 kinase inhibition, 0.2 μM ATP; read-out: JAK2 Potency
pIC50: −log10 of the molar value.
Assay Readout: pIC50

A selection of reference data follows.
COc1cc(CN2CCN(C[C@H](C)O)CC2)ccc1Nc1ncc2ccc(-c3ccccc3OC)n2n1 [Example 1226] = 6.00 to 7.00
CCS(=O)(=O)c1cccc(-c2ccc3cnc(Nc4ccc5nc(C(F)(F)F)[nH]c5c4)nn23)c1 [Example 1313] = > 7.00
COc1cc(C2CCN(CC(N)=O)CC2)ccc1Nc1ncc2ccc(-c3cn(C)nc3N(C)S(C)(=O)=O)n2n1 [Example 1256] = 5.00 to 6.00
COc1ccc(-c2ccc3cnc(Nc4ccc(N5CCC(CO)CC5)cc4)nn23)cn1 [Example 1102] = > 7.00
CC(C)c1nc2ccc(Nc3ncc4ccc(-c5cccc(S(=O)(=O)NC(C)(C)C)c5)n4n3)cc2[nH]1 [Example 1329] = > 7.00
COc1ccccc1-c1ccn2nc(Nc3ccc4c(c3)CN(C)CC4)ncc12 [Example 722] = 5.00 to 6.00
Cn1ncc2ccc(Nc3ncc4ccc(-c5cccc(S(=O)(=O)NC(C)(C)C)c5)n4n3)cc21 [Example 1317] = > 7.00

Name the reported pIC50 value associated with the compound CN(c1ccccc1-c1ccc2cnc(Nc3ccc4[nH]ncc4c3)nn12)S(C)(=O)=O [Example 1338]
> 7.00

---

Biological target: JAK2 (Homo sapiens)
Construct: host or cells: baculovirus expression system
Assay: Recombinant Human JAK2 Kinase Assay (TRF)
Type: biochemical
Conditions: JAK2 kinase inhibition, 0.2 μM ATP; read-out: JAK2 Potency
pIC50: −log10 of the molar value.
Assay Readout: pIC50

COc1cc(C(=O)N2CCN(C)CC2)ccc1Nc1ncc2ccc(-c3ccccc3N(C)S(C)(=O)=O)n2n1 [Example 490] = 5.00 to 6.00

Query pIC50 on JAK2 (Homo sapiens) for COc1cc(Nc2ncc3ccc(-c4cccc(S(=O)(=O)NC(C)(C)C)c4)n3n2)ccc1C1CCN(CC(N)=O)CC1 [Example 924]
> 7.00

Try N#CCCc1cccc(-c2ccc3cnc(Nc4ccc(N5CCC(N6CCOCC6)CC5)cc4)nn23)c1 [Example 1150] next.
> 7.00

Try COc1cc([C@@H]2CCNC[C@H]2O)ccc1Nc1ncc2ccc(-c3ccccc3OC)n2n1 (racemic) [Example 855] next.
6.00 to 7.00

---

Molecular target: ALK (Homo sapiens)
Construct: host or cells: baculovirus expression system
Assay: ALK Kinase Assay (ELISA/TRF, PLC-γ substrate)
Format: biochemical
Settings: ALK Kinase Inhibition; read-out: ALK Potency
Assay Readout: IC50

Name the reported IC50 value associated with the molecule C[C@H](O)CN1CCN(c2ccc(Nc3ncc4ccc(-c5ccccc5N(C)S(C)(=O)=O)n4n3)cc2F)CC1 [Example 1423]
< 100 nM

Try NC(=O)CN1CCC(c2ccc(Nc3ncc4ccc(-c5cccc6c5OC(F)(F)O6)n4n3)cc2)CC1 [Example 1540] next.
100 to 1000 nM

Try CN(c1ccccc1-c1ccc2cnc(Nc3ccc4nc(CN5CCOCC5)[nH]c4c3)nn12)S(C)(=O)=O [Example 1517] next.
100 to 1000 nM

Try CN1CCC2(CCc3cc(Nc4ncc5ccc(-c6cccc(NS(C)(=O)=O)c6)n5n4)ccc3O2)CC1 [Example 378] next.
< 100 nM

Try O=S(=O)(NCCO)c1cccc(-c2ccc3cnc(Nc4ccc(N5CCOCC5)cc4)nn23)c1 [Example 368] next.
100 to 1000 nM

Try COc1cc(N2CCN(C)CC2)ccc1Nc1ncc2ccc(-c3ccccc3OC)n2n1 [Example 33] next.
< 100 nM

Try CC(=O)Nc1cccc(Nc2ncc3ccc(-c4cccc(N5CCCS5(=O)=O)c4)n3n2)c1 [Example 1508] next.
1000 to 10000 nM

---

This section presents compounds with their documented pIC50 values.
Molecular target: ALK (Homo sapiens, UniProt Q9UM73)
Construct: host or cells: baculovirus expression system
Experiment: ALK Kinase Assay (ELISA/TRF, PLC-γ substrate)
Type: biochemical
Conditions: ALK Kinase Inhibition; read-out: ALK Potency
pIC50: −log10 of the molar value.

A selection of reference data follows.
CN1CCN(c2ccc(Nc3ncc4ccc(-c5ccc(CO)cc5)n4n3)cc2)CC1 = > 7.00
NC(=O)c1ccccc1-c1ccc2cnc(Nc3ccc(N4CCOCC4)cc3)nn12 = 5.00 to 6.00
CN1CCN(c2ccc(Nc3ncc4ccc(-c5ccccc5NS(C)(=O)=O)n4n3)cc2)CC1 = 6.00 to 7.00
CNS(=O)(=O)c1cccc(-c2ccc3cnc(Nc4ccc(N5CCOCC5)cc4)nn23)c1 = 6.00 to 7.00
COc1cc(N2CCN(C)CC2)ccc1Nc1ncc2ccc(-c3cccc(S(C)(=O)=O)c3)n2n1 = > 7.00

Name the reported pIC50 value associated with the compound Cc1cc(N2CCN(C)CC2)ccc1Nc1ncc2ccc(-c3cccc(Cl)c3)n2n1
> 7.00

Try COc1ccc(-c2ccc3cnc(Nc4ccc5nc(CN6CCN(CCO)CC6)[nH]c5c4)nn23)cn1 next.
5.00 to 6.00

Try COc1cc(Nc2ncc3ccc(-c4ccccc4OC)n3n2)cc(OC)c1 next.
6.00 to 7.00
